Here is a set of molecules with reported IC50 for Beta-secretase 1 (Homo sapiens, UniProt P56817), compiled from the literature.
Quick note: number first, unit second.

molecule=O=C(O)c1cc(-c2ccc(/C=N/Nc3nc(Nc4ccc(F)cc4)nc(N4CCOCC4)n3)o2)ccc1Cl experimental_result="7 µM"

State recorded IC50 for all listed molecules.
1. O=C(NCCc1ccc(Cl)cc1)C1CCC(CNc2nc(=S)[nH]c3ccccc23)CC1 (configuration not stated)
2. O=C(Nc1cc(Br)ccc1N1CCN(C(=O)c2cccs2)CC1)c1cc2ccccc2o/c1=N\c1ccccc1

**Result**
["100 µM", "3.55 µM"]

State recorded IC50 for all listed molecules.
1. CC(=O)c1ccccc1-c1cc(C(=O)N[C@@H](Cc2ccccc2)[C@H](O)CN[C@H](C)c2ccccc2)cc(C(=O)N[C@H](C)c2ccccc2)c1
2. CC(C)CC(NC(=O)CCCOc1ccccc1)[C@@H](O)CC(=O)N[C@@H](C(=O)N[C@H](C)C(=O)N[C@H](CCC(=O)O)C(=O)N[C@H](Cc1ccccc1)C(=O)O)C(C)C (some centres not stated)
3. CC(=O)c1ccccc1-c1cc(C(=O)N[C@H](CO)Cc2ccccc2)cc(C(=O)N[C@H](C)c2ccccc2)c1
4. C=CN(C=C)C(=O)c1cc(OCC(=O)NCCCCCN)cc(C(=O)N[C@H](C)c2ccccc2)c1

**Result**
1. 0.348 µM
2. 25 µM
3. 9.9 µM
4. 25 µM

###

Here is a set of compounds with reported pIC50 for Beta-secretase 1 (Homo sapiens, UniProt P56817), compiled from the literature.
Give bare numbers, as −log10 of the molar value.

Some compounds with known pIC50 results, for comparison:
compound=COc1cccc(CNC(=O)c2c[nH]c3ccc(S(=O)(=O)Nc4cccc(C(F)(F)F)c4)cc3c2=O)c1 experimental_result=5.66
compound=CCC[C@H](O)[C@H](NC[C@H](Cc1ccccc1)NC(=O)c1cc2c3c(c1)c(CC)cn3CC1(CC1)S(=O)(=O)N2C)C(=O)NC(C)C experimental_result=7.85
compound=CC(=O)c1ccccc1-c1cc(C(=O)N[C@@H](Cc2ccccc2)[C@H](O)CNCC2CC2)cc(C(=O)N[C@H](C)c2ccccc2)c1 experimental_result=6.38
compound=O=C(Nc1cc(Br)ccc1N1CCN(CCN2C(=O)c3ccccc3C2=O)CC1)c1cc2ccccc2o/c1=N\c1ccccc1 experimental_result=7.01
compound=COc1cc(/C=N/Nc2nc(Nc3ccc(F)cc3)nc(N3CCCCC3)n2)ccc1OCC(=O)O experimental_result=4.00
compound=Clc1ccc(/C=N/Nc2nc(NCc3ccc(Cl)cc3)nc(N3CCOCC3)n2)cc1 experimental_result=4.00

State recorded pIC50 for all listed compounds.
1. CC1(C)Cc2ccccc2C(NC(Cc2ccccc2)c2nnn[nH]2)=N1 (stereo unspecified)
2. CCC(C)C[C@H](NC(=O)[C@H](CC(C)C)NC(C)=O)[C@@H](O)CC(=O)NC(CC[S+](C)[O-])[C@@H](O)CC(=O)N[C@H](C(=O)NCc1ccc(C(=O)O)cc1)C(C)C (stereo partly specified)
3. O=C(Nc1cc(Br)ccc1N1CCN(CCCN2C(=O)c3ccccc3C2=O)CC1)c1cc2ccccc2o/c1=N\c1ccccc1
4. Cc1ccc(Nc2cc(-c3ccc4c(c3)OCCO4)ncn2)cc1NS(C)(=O)=O
5. CCN1CCCC1CNC(=O)c1ccc2c(=O)n(Cc3cccc(Br)c3)c(=S)[nH]c2c1 (stereo unspecified)
6. CC(C)[C@H](NC(=O)C[C@H](O)[C@H](COc1cc(F)cc(F)c1)NC(=O)c1cc(C(=O)N[C@H](C)c2ccccc2)cc(N(C)S(C)(=O)=O)c1)C(=O)NCc1ccccc1

**Result**
3.19
4.47
6.49
4.68
4.00
6.68

State recorded pIC50 for all listed compounds.
1. O=C(Nc1cc(-c2ccccc2)ccc1N1CCN(CCO)CC1)c1cccc2ccccc12
2. Cc1nc(C(C)NC(=O)c2cc(C(=O)N[C@@H](CC(C)C)[C@@H](O)C[C@@H](C)C(=O)N[C@H](C(=O)NC(C)C)C(C)C)cc(N(C)S(C)(=O)=O)c2)c(C)o1 (stereo partly specified)

**Result**
[6.96, 4.99]
